Test: Pharmacokinetic profile of PND in rats with or without ibrutinib (UGTs inhibitor) pretreatment
Format: in vivo, rat
Conditions: rat, plasma, po, PND i.g 3.5 mg/kg, Control, Mean ± SD, n = 3
measurement-kind: half-life
// unit must come after the numeric part

Identify measured half-life corresponding to CC(=O)c1cc(C)c(O)c(Cc2[nH]c3ccccc3c2Cc2c(O)c(C)cc(C(C)=O)c2O)c1O
4.87 h

====

Tested on: CYPs
Test: in vitro
Details: rat, pH 7.4
measurement-kind: Km (µM)
# unit: µM | format: bare number

Provide Km, recorded with CYPs, of CC(=O)c1cc(C)c(O)c(Cc2[nH]c3ccccc3c2Cc2c(O)c(C)cc(C(C)=O)c2O)c1O
15.2

====

Target: UGT1A6 (Mus musculus, UniProt Q64435)
Construct: Mouse liver microsomes (MLM) were prepared with 10 Kunming males (6–8 weeks); from tissue; host or cells: liver microsomes of male Kunming mice, prepared in house
Sequence (Q64435 27-531): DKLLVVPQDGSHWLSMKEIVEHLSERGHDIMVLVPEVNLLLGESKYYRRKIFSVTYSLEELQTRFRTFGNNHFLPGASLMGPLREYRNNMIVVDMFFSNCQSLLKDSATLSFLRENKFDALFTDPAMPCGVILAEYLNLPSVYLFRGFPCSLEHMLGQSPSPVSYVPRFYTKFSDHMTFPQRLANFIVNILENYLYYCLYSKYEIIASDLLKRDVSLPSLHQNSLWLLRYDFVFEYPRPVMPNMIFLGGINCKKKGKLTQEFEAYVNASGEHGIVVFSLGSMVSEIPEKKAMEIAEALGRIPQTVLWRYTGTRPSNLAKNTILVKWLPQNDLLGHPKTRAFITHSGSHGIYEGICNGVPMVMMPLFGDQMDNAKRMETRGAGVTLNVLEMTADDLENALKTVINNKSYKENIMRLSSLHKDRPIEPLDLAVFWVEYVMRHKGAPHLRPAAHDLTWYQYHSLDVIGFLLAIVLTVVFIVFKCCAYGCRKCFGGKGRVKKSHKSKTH
Experiment: Chemical inhibition assay of PND metabolism in MLM, UGT1A6 inhibitor
Format: in vitro ADME
Settings: liver microsomes, pH 7.4, probe PND (2 µM), overall metabolism of PND, troglitazone 250 μM
measurement-kind: inhibition at 90 min, 250 μM (%)
# unit: % | format: bare number

Identify measured inhibition at 90 min, 250 μM corresponding to Cc1c(C)c2c(c(C)c1O)CCC(C)(COc1ccc(CC3SC(=O)NC3=O)cc1)O2 (stereo not shown)
61.8

====

Test: Pharmacokinetic profile of PND in rats with or without ibrutinib (UGTs inhibitor) pretreatment
Type: in vivo, rat
Settings: rat, plasma, po, 3.5 mg/kg, PND i.g 3.5 mg/kg, Control, Mean ± SD, n = 3, read-out: Tmax-1
measurement-kind: Tmax

Identify measured Tmax corresponding to CC(=O)c1cc(C)c(O)c(Cc2[nH]c3ccccc3c2Cc2c(O)c(C)cc(C(C)=O)c2O)c1O
36.6 min

====

Assay: Pharmacokinetic profile of PND in rats with or without ibrutinib (UGTs inhibitor) pretreatment
Format: in vivo, rat
Settings: rat, plasma, oral, 3.5 mg/kg, PND i.g 3.5 mg/kg after i.p. Ibrutinib (100 mg/kg) pretreatment, Mean ± SD, n = 3, read-out: Tmax-1
Protocol: Ibrutinib, a broad inhibitor of UGTs, was used to block the metabolism of PND via UGTs. PND and ibrutinib were formulated in PEG 300-water (70%: 30%, v/v) and DMSO-Cremophor EL-water (10%: 30%: 60%, v/v/v), respectively. […] The plasma samples were analyzed using the reported LC–MS/MS method as described in our previous study. Figures and statistics were plotted and calculated using GraphPad Prism (version 8.4.3) and Microsoft Excel (version 2019). […]
measurement-kind: Tmax (min)
# unit: min | format: bare number

Identify measured Tmax corresponding to CC(=O)c1cc(C)c(O)c(Cc2[nH]c3ccccc3c2Cc2c(O)c(C)cc(C(C)=O)c2O)c1O
28.2

====

Test: Pharmacokinetic profile of PND in rats with or without ibrutinib (UGTs inhibitor) pretreatment
Assay type: in vivo, rat
Conditions: rat, plasma, po, 3.5 mg/kg, PND i.g 3.5 mg/kg, Control, Mean ± SD, n = 3, read-out: Cmax-1
measurement-kind: Cmax (µg/mL)
# unit: µg/mL | format: bare number

Identify measured Cmax corresponding to CC(=O)c1cc(C)c(O)c(Cc2[nH]c3ccccc3c2Cc2c(O)c(C)cc(C(C)=O)c2O)c1O [PND, Penindolone]
0.229

====

Tested on: CYP2C9 (CYP2C6)
Assay: in vitro
Conditions: male, Sprague-Dawley (rat), Kunming (mouse), human, liver microsomes, probe PND (2 µM)
measurement-kind: inhibition at 100 µM

Identify measured inhibition at 100 µM corresponding to Nc1ccc(S(=O)(=O)Nc2ccnn2-c2ccccc2)cc1 [sulphafenazole]
19 to 48%

====

Target: UGT1A1 (Rattus norvegicus)
Construct: rat liver microsomes (RLMs) were prepared with 6 Sprague-Dawley males (6–8 weeks); from tissue; host or cells: liver microsomes of male Sprague-Dawley rats, prepared in house
Sequence (Q64550 30-535): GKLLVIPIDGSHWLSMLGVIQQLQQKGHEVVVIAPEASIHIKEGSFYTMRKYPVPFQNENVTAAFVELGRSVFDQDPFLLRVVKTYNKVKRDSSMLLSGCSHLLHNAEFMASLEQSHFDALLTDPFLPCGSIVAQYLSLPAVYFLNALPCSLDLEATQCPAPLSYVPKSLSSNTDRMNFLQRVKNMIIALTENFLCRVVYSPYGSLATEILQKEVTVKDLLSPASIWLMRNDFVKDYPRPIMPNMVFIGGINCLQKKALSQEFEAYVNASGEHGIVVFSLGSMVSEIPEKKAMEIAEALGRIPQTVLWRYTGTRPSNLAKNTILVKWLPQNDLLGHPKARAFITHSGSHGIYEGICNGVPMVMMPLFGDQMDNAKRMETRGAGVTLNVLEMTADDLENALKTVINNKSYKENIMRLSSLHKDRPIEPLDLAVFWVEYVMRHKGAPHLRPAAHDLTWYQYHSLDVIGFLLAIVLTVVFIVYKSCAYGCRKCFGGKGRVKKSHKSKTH
Assay: Chemical inhibition assay of PND metabolism in RLM, UGT1A1 inhibitor
Type: in vitro ADME
Details: liver microsomes, pH 7.4, probe PND (2 µM), overall metabolism of PND, bilirubin 100 μM
measurement-kind: inhibition at 90 min, 100 μM (%)
# unit: % | format: bare number

Identify measured inhibition at 90 min, 100 μM corresponding to C=CC1=C(C)/C(=C/c2[nH]c(Cc3[nH]c(/C=C4\NC(=O)C(C)=C4C=C)c(C)c3CCC(=O)O)c(CCC(=O)O)c2C)NC1=O [bilirubin]
64.3

====

Assay: Pharmacokinetic profile of PND in rats with or without ibrutinib (UGTs inhibitor) pretreatment
Type: in vivo, rat
Conditions: rat, plasma, oral, PND i.g 3.5 mg/kg after i.p. Ibrutinib (100 mg/kg) pretreatment, Mean ± SD, n = 3, read-out: MRT0-∞
measurement-kind: MRT inf (h)
# unit: h | format: bare number

Identify measured MRT inf corresponding to CC(=O)c1cc(C)c(O)c(Cc2[nH]c3ccccc3c2Cc2c(O)c(C)cc(C(C)=O)c2O)c1O [PND, Penindolone]
23.9

====

Tested on: CYPs
Assay: in vitro
Conditions: human, pH 7.4
measurement-kind: Km
// unit must come after the numeric part

Provide Km, recorded with CYPs, of CC(=O)c1cc(C)c(O)c(Cc2[nH]c3ccccc3c2Cc2c(O)c(C)cc(C(C)=O)c2O)c1O
97.7 µM

====

Assay: Pharmacokinetic profile of PND in rats with or without ibrutinib (UGTs inhibitor) pretreatment
Type: in vivo, rat
Details: rat, plasma, oral, PND i.g 3.5 mg/kg after i.p. Ibrutinib (100 mg/kg) pretreatment, Mean ± SD, n = 3
measurement-kind: half-life
// unit must come after the numeric part

Identify measured half-life corresponding to CC(=O)c1cc(C)c(O)c(Cc2[nH]c3ccccc3c2Cc2c(O)c(C)cc(C(C)=O)c2O)c1O [PND, Penindolone]
15.8 h

====

Biological target: UGT1A9 (Homo sapiens, UniProt O60656)
Construct: Male Mongolia human microsomes (HLM), prepared from 30 male donors (19–78 years old); tissue RILD Liver Disease Research Co., Ltd. (Shanghai, China); host or cells: pooled human liver microsomes, 30 male donors
Sequence (O60656 26-530): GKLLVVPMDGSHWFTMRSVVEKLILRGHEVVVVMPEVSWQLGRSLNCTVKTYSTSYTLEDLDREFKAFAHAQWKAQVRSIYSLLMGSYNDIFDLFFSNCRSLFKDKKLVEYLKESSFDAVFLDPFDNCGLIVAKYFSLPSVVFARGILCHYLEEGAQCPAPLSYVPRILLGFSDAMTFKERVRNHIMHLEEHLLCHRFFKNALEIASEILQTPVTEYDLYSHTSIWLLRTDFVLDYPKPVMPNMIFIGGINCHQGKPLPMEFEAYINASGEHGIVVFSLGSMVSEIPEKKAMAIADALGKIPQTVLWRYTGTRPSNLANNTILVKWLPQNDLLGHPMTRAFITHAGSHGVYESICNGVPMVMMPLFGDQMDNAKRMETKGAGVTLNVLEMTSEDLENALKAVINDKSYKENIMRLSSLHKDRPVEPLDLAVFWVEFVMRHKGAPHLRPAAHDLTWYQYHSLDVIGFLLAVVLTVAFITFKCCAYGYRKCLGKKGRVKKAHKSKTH
Test: Chemical inhibition assay of PND metabolism in HLM, UGT1A9 inhibitor
Format: in vitro ADME
Conditions: liver microsomes, probe PND (2 µM), overall metabolism of PND, niflumic acid 5 μM
measurement-kind: inhibition at 90 min, 5 μM (%)
# unit: % | format: bare number

Provide inhibition at 90 min, 5 μM, recorded with UGT1A9 (Homo sapiens, UniProt O60656), of O=C(O)c1cccnc1Nc1cccc(C(F)(F)F)c1 [niflumic acid]
36.7

====

Experiment: Pharmacokinetic profile of PND in rats with or without ibrutinib (UGTs inhibitor) pretreatment
Type: in vivo, rat
Details: rat, plasma, oral, PND i.g 3.5 mg/kg after i.p. Ibrutinib (100 mg/kg) pretreatment, Mean ± SD, n = 3
measurement-kind: Vd (L/kg)
# unit: L/kg | format: bare number

Identify measured Vd corresponding to CC(=O)c1cc(C)c(O)c(Cc2[nH]c3ccccc3c2Cc2c(O)c(C)cc(C(C)=O)c2O)c1O
15.6

====

Test: Pharmacokinetic profile of PND in rats with or without ibrutinib (UGTs inhibitor) pretreatment
Assay type: in vivo, rat
Conditions: rat, plasma, po, PND i.g 3.5 mg/kg, Control, Mean ± SD, n = 3, read-out: MRT0-∞
measurement-kind: MRT inf (h)
# unit: h | format: bare number

Identify measured MRT inf corresponding to CC(=O)c1cc(C)c(O)c(Cc2[nH]c3ccccc3c2Cc2c(O)c(C)cc(C(C)=O)c2O)c1O
12.8

====

Experiment: Pharmacokinetic profile of PND in rats with or without ibrutinib (UGTs inhibitor) pretreatment
Format: in vivo, rat
Details: rat, plasma, po, PND i.g 3.5 mg/kg, Control, Mean ± SD, n = 3
Description: Ibrutinib, a broad inhibitor of UGTs, was used to block the metabolism of PND via UGTs. PND and ibrutinib were formulated in PEG 300-water (70%: 30%, v/v) and DMSO-Cremophor EL-water (10%: 30%: 60%, v/v/v), respectively. […] The plasma samples were analyzed using the reported LC–MS/MS method as described in our previous study. Figures and statistics were plotted and calculated using GraphPad Prism (version 8.4.3) and Microsoft Excel (version 2019). […]
measurement-kind: AUC(0-inf) (ng·h/mL)
# unit: ng·h/mL | format: bare number

Identify measured AUC(0-inf) corresponding to CC(=O)c1cc(C)c(O)c(Cc2[nH]c3ccccc3c2Cc2c(O)c(C)cc(C(C)=O)c2O)c1O [PND, Penindolone]
4180
